Where a name gives a salt, the structure may show the parent alone.
MEASURED ATTRIBUTE: melting point

compound="CCCCCCCCCC[n+]1ccc(C(=O)N/N=C/c2ccc[n+](CCCCCCCCCC)c2)cc1 (as salt: phosphate) [Compound 22]" result="42 to 44 °C"
compound="CCCCCCCCCCCCCCCCCC[n+]1ccc(C(=O)NN=Cc2ccc[n+](CCCCCCCCCCCCCCCCCC)c2)cc1.[I-].[I-] [Compound 15]" result="192 to 193 °C"
compound="CCCCCCCC[n+]1ccc(C(=O)N/N=C/c2ccc[n+](CCCCCCCC)c2)cc1 (as salt: phosphate) [Compound 16]" result="58 to 59 °C"
compound="CCCCCCCC[n+]1ccc(C(=O)NN=Cc2ccc[n+](CCCCCCCC)c2)cc1.[I-].[I-] [Compound 9]" result="82 to 84 °C"

====

System: H1299 lung cancer cells
Experiment: MTT cell viability assay, H1299
Assay type: cell-based, human
Conditions: 48 h, mean of three independent experiments (N = 9)
pIC50: −log10 of the molar value.
Recorded pIC50 values for a group of compounds are listed next.
MEASURED ATTRIBUTE: pIC50

compound=CCCCCCCCCCCC[n+]1ccc(C(=O)NN=Cc2ccc[n+](CCCCCCCCCCCC)c2)cc1.[I-].[I-] target_under_test="H1299 lung cancer cells" number=4.52
compound=CCCCCCCC[n+]1ccc(C(=O)NN=Cc2ccc[n+](CCCCCCCC)c2)cc1.[I-].[I-] target_under_test="H1299 lung cancer cells" number=4.19
compound=CCCCCCCCC[n+]1ccc(C(=O)NN=Cc2ccc[n+](CCCCCCCCC)c2)cc1.[I-].[I-] target_under_test="H1299 lung cancer cells" number=4.20
compound="CCCCCCCCCCCCCCCCCC[n+]1ccc(C(=O)NN=Cc2ccc[n+](CCCCCCCCCCCCCCCCCC)c2)cc1 [Compound 35]" target_under_test="H1299 lung cancer cells" number=3.40
compound="CCCCCCCCCCCCCCCC[n+]1ccc(C(=O)NN=Cc2ccc[n+](CCCCCCCCCCCCCCCC)c2)cc1 [Compound 32]" target_under_test="H1299 lung cancer cells" number=3.97
compound="CCCCCCCCCCCCCCCC[n+]1ccc(C(=O)NN=Cc2ccc[n+](CCCCCCCCCCCCCCCC)c2)cc1 [Compound 14]" target_under_test="H1299 lung cancer cells" number=5.00
compound=CCCCCCCC[n+]1ccc(C(=O)NN=Cc2ccc[n+](CCCCCCCC)c2)cc1 target_under_test="H1299 lung cancer cells" number=4.15

====

Test system: H1299 lung cancer cells
Assay: MTT cell viability assay, H1299
Assay type: cell-based, human
Settings: 48 h, mean of three independent experiments (N = 9)
Method: To evaluate the effect of the examined series on the viability of different lung cancer cells, MTT assay was conducted after exposing A549, H1299, and H661 cell lines to increasing concentrations of each compound for 48 h. […] Data was analyzed by Graphpad Prism software (Graphpad Software Inc. Jolla, CA, USA) for the determination of IC50 value. All data were expressed as the average of triplicate experiments.
MEASURED ATTRIBUTE: IC50 (µM)

molecule="CCCCCCCCC[n+]1ccc(C(=O)NN=Cc2ccc[n+](CCCCCCCCC)c2)cc1 [Compound 20]" measured_attribute=IC50 number=32.6
molecule=CCCCCCCCCCCC[n+]1ccc(C(=O)NN=Cc2ccc[n+](CCCCCCCCCCCC)c2)cc1 measured_attribute=IC50 number=12.1
molecule=CCCCCCCCCC[n+]1ccc(C(=O)NN=Cc2ccc[n+](CCCCCCCCCC)c2)cc1.[I-].[I-] measured_attribute=IC50 number=19

====

Each entry below carries its recorded melting point.
MEASURED ATTRIBUTE: melting point

molecule="CCCCCCCCC[n+]1ccc(C(=O)NN=Cc2ccc[n+](CCCCCCCCC)c2)cc1.[I-].[I-] [Compound 10]" result="76 to 78 °C"
molecule="CCCCCCCCCC[n+]1ccc(C(=O)NN=Cc2ccc[n+](CCCCCCCCCC)c2)cc1.[I-].[I-] [Compound 11]" result="70 to 72 °C"
molecule="CCCCCCCCCCCC[n+]1ccc(C(=O)NN=Cc2ccc[n+](CCCCCCCCCCCC)c2)cc1.[I-].[I-] [Compound 12]" result="63 to 65 °C"

====

System: H1299 lung cancer cells
Assay: MTT cell viability assay, H1299
Assay type: cell-based, human
Settings: 48 h, mean of three independent experiments (N = 9)
MEASURED ATTRIBUTE: IC50 (µM)

molecule="CCCCCCCCCCCCCCCC[n+]1ccc(C(=O)NN=Cc2ccc[n+](CCCCCCCCCCCCCCCC)c2)cc1 [Compound 33]" unit_of_measure=µM number=92.3
molecule="CCCCCCCCCCCCCCCCCC[n+]1ccc(C(=O)NN=Cc2ccc[n+](CCCCCCCCCCCCCCCCCC)c2)cc1 [Compound 36]" unit_of_measure=µM number=947
molecule="N.N.[Cl][Pt][Cl] [Cisplatin, cisplatin, reference compound]" unit_of_measure=µM number=18
molecule="CCCCCCCCCCCCCC[n+]1ccc(C(=O)NN=Cc2ccc[n+](CCCCCCCCCCCCCC)c2)cc1 [Compound 30]" unit_of_measure=µM number=38.5
